- System: Nucleic Acid
- METHOD_SUMMARY: Binding affinity to 20 mer GC-rich DNA in MES00 buffer at pH 6.3 by isothermal titration calorimetry
- Type: nucleic-acid assay
ENDPOINT: K (×10⁶ /M)

ENTRY_SMILES: C[N+](C)(C)CN1C(=O)c2ccc3c4c(ccc(c24)C1=O)C(=O)N(C[N+](C)(C)C)C3=O
RESULT: 1.17
--
ENTRY_SMILES: CCC[N+](C)(CCC)CN1C(=O)c2ccc3c4c(ccc(c24)C1=O)C(=O)N(C[N+](C)(CCC)CCC)C3=O
RESULT: 0.24
--
ENTRY_SMILES: CCCC[N+](C)(CCCC)CN1C(=O)c2ccc3c4c(ccc(c24)C1=O)C(=O)N(C[N+](C)(CCCC)CCCC)C3=O
RESULT: 0.38
--
ENTRY_SMILES: CC[N+](C)(CC)CN1C(=O)c2ccc3c4c(ccc(c24)C1=O)C(=O)N(C[N+](C)(CC)CC)C3=O
RESULT: 0.37

* * *

- TARGET: DNA topoisomerase 1 (Homo sapiens) (UniProt P11387)
- Sequence (P11387 whole entry): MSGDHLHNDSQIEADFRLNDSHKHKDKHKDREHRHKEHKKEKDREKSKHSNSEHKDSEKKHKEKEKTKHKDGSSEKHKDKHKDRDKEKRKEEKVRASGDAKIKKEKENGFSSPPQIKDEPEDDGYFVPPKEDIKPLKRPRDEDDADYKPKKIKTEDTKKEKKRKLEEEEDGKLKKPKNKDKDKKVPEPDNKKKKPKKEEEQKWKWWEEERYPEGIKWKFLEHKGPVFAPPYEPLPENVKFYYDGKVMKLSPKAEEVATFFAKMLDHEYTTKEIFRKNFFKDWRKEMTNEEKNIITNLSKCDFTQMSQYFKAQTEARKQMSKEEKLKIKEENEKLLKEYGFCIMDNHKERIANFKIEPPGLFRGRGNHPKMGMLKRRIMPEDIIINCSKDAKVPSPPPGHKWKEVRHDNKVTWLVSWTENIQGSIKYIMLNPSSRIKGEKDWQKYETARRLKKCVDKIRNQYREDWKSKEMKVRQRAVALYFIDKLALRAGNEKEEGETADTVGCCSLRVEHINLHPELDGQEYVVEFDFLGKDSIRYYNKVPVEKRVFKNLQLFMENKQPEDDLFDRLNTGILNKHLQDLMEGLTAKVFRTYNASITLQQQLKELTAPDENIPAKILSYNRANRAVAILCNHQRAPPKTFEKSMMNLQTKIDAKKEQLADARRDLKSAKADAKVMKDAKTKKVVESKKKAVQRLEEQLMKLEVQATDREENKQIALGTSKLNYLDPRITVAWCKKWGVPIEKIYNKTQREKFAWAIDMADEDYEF
- METHOD_SUMMARY: Inhibition of human topoisomerase 1 assessed as minimum concentration required for complete re-supercoiling of pUC19 DNA after 1 hr using ethidium bromide staining by agarose gel electrophoresis
ENDPOINT: Activity

ENTRY_SMILES: CCCC[N+](C)(CCCC)CN1C(=O)c2ccc3c4c(ccc(c24)C1=O)C(=O)N(C[N+](C)(CCCC)CCCC)C3=O
RESULT: > 6.7 µM
--
ENTRY_SMILES: C[N+](C)(C)CN1C(=O)c2ccc3c4c(ccc(c24)C1=O)C(=O)N(C[N+](C)(C)C)C3=O
RESULT: 3.5 µM
--
ENTRY_SMILES: CCC[N+](C)(CCC)CN1C(=O)c2ccc3c4c(ccc(c24)C1=O)C(=O)N(C[N+](C)(CCC)CCC)C3=O
RESULT: 6.7 µM
--
ENTRY_SMILES: CC[N+](C)(CC)CN1C(=O)c2ccc3c4c(ccc(c24)C1=O)C(=O)N(C[N+](C)(CC)CC)C3=O
RESULT: 5.5 µM

* * *

- System: Nucleic Acid
- METHOD_SUMMARY: Binding affinity to 20 mer AT-rich DNA in MES00 buffer at pH 6.3 by isothermal titration calorimetry
- Type: nucleic-acid assay
ENDPOINT: K (×10⁶ /M)

ENTRY_SMILES: CCCC[N+](C)(CCCC)CN1C(=O)c2ccc3c4c(ccc(c24)C1=O)C(=O)N(C[N+](C)(CCCC)CCCC)C3=O
UNIT_NAME: ×10⁶ /M
RESULT: 1.38
//
ENTRY_SMILES: CCC[N+](C)(CCC)CN1C(=O)c2ccc3c4c(ccc(c24)C1=O)C(=O)N(C[N+](C)(CCC)CCC)C3=O
UNIT_NAME: ×10⁶ /M
RESULT: 0.73
//
ENTRY_SMILES: C[N+](C)(C)CN1C(=O)c2ccc3c4c(ccc(c24)C1=O)C(=O)N(C[N+](C)(C)C)C3=O
UNIT_NAME: ×10⁶ /M
RESULT: 1.11
//
ENTRY_SMILES: CC[N+](C)(CC)CN1C(=O)c2ccc3c4c(ccc(c24)C1=O)C(=O)N(C[N+](C)(CC)CC)C3=O
UNIT_NAME: ×10⁶ /M
RESULT: 0.85
